test system: HLA-A24; experiment: Peptide stability assay on CIR-A24 cells (brefeldin A); format: binding; conditions: 50 μg/mL peptide + 5 μg/mL β2-microglobulin, 24 hours, then 50 μg/mL brefeldin A for 4 hours, FITC anti-HLA-A24 staining, MFI with peptide / MFI without peptide, average of the two assays
# Stability MFI ratio per entry
Endpoint Label: Stability MFI ratio

[[record]]
construct_sequence = "QYMTSLLSPA [PEPP2^9-18]"
endpoint_label = "Stability MFI ratio"
recorded_result = 0.865

[[record]]
construct_sequence = "GGAGVPGHL [PEPP2^81-89]"
endpoint_label = "Stability MFI ratio"
recorded_result = 0.785

[[record]]
construct_sequence = "AFTPIQLQEL [PEPP2^140-149]"
endpoint_label = "Stability MFI ratio"
recorded_result = 0.851

[[record]]
construct_sequence = "MPPFPPPSL [PEPP2^246-254]"
endpoint_label = "Stability MFI ratio"
recorded_result = 0.914

[[record]]
construct_sequence = "VHAFTPLQL [PEPP2^138-146]"
endpoint_label = "Stability MFI ratio"
recorded_result = 0.748

[[record]]
construct_sequence = "SLPLPLMLL [PEPP2^253-261]"
endpoint_label = "Stability MFI ratio"
recorded_result = 1.103

[[record]]
construct_sequence = "QCSQYMTSL [PEPP2^6-14]"
endpoint_label = "Stability MFI ratio"
recorded_result = 0.614

[[record]]
construct_sequence = "DYFWDHSHS [PEPP2^231-239]"
endpoint_label = "Stability MFI ratio"
recorded_result = 0.869

[[record]]
construct_sequence = "LQLQELERI [PEPP2^144-152]"
endpoint_label = "Stability MFI ratio"
recorded_result = 0.738

[[record]]
construct_sequence = "KWRRHQRAL [PEPP2^188-196, PEPP2-derived candidate peptide …]"
endpoint_label = "Stability MFI ratio"
recorded_result = 0.714

